- Tested on: Klebsiella pneumoniae
- APPLIED CONDITIONS: Concentration 32 ug.mL-1; ASSAY_TEST Inhibition of Bacterial Growth; detection method Absorption (OD600); MEDIA CAMHB; plate type 384well; NBS; CORNING #3640; time 18 hr
- Description: Antibacterial activity against Klebsiella pneumoniae MDR ATCC 70063 (CO-ADD:GN_003); MIC in CAMBH media using NBS plates, by OD(600)
Potency and affinity values are given separately.
Assign Inhibition to each entry below.
Give the number; % is assumed, so skip it.

Given the entry CN(C)c1nc2nc3c(c(N)c2c(-c2ccccc2)c1C#N)CCCC3 , report its measured Inhibition.
5.15

Given the entry N#CC1=C(N)Oc2c(ccc3ccccc23)C1c1c(Cl)cccc1Cl (stereo not drawn) , report its measured Inhibition.
5.34

Given the entry Clc1ccc(-c2cn3ccccc3n2)cc1 , report its measured Inhibition.
18.54
